assay remarks: HILIC, Waters ACQUITY UPLC BEH Amide, 100 × 2.1 mm, 1.7 µm; A: water + 0.125% formic acid + 10 mM ammonium formate; B: 5% water + 95% acetonitrile + 0.125% formic acid + 10 mM ammonium formate; gradient (min/%B) 0/100 2/100 7.7/70 9.5/40 10.25/30 12.75/100 17/100
experimental context: stereoisomer not certain
Hi! Could you tag entries with LC retention time below 4 min as Satisfied, and those at or above as Not satisfied? Much appreciated.

These solved cases illustrate the format of a correct answer.
- C[N+](C)(C)CC(O)CC(=O)[O-] (stereo not drawn): Not satisfied
- [NH3+]CC(=O)N1CCCC1C(=O)[O-] (stereo not drawn): Not satisfied
- CCC(=O)C(CC(C)N(C)C)(c1ccccc1)c1ccccc1 (stereo not drawn): Satisfied
- O=C(O)C=Cc1ccc(Cn2ccnc2)cc1: Satisfied
- CC1CC2C3CCC4=CC(=O)C=CC4(C)C3(Cl)C(O)CC2(C)C1(O)C(=O)CO (stereo not drawn): Satisfied

*Q* Is LC retention time strictly under 4 min for the entry COc1ccc(-c2oc3c(CC=C(C)C)c(OC4OC(CO)C(O)C(O)C4O)cc(O)c3c(=O)c2OC2OC(C)C(O)C(O)C2O)cc1 (stereo not drawn) ?
*A* Not satisfied

*Q* Strictly below 4 min in LC retention time? Cn1c(=O)c2c([nH]c(=O)n2C)n(C)c1=O
*A* Satisfied
